Below, each entry is listed with its recorded inhibition.
Molecular target: Tyrosine-protein phosphatase YopH [Yersinia enterocolitica]
Test: potency against Yersinia YopH phosphatase – biochemical, 10-point dose range, dose response (AID 1261)
Settings: YopH phosphatase enzymatic assay, IC50, 3 runs; inhibition; at 50 µM; stronger effect = higher value
Records with an inconclusive call do not appear.
Value expressed in %; do not type the unit.

Some compounds with recorded inhibition:
COMPOUND	inhibition, %
CCO/C=C1/C(=O)N(Cc2ccccc2)C(=O)c2ccccc21	49.7
CCN1CCN(CCCOc2ccc(-c3ccccc3)cc2)CC1	-0.391
Cc1ccc(NC2=C(NCCO)C(=O)c3ccccc3C2=O)cc1	7.47
O=C(COC(=O)c1ccc([N+](=O)[O-])s1)Nc1ccccc1	-23.9
CCCCCCCC1=CC2=CC(=O)C(C)(OC(C)=O)C(=O)C2=CN1CCc1ccccc1 (configuration not stated)	-7.04

Please report the recorded inhibition for CCOc1ccc(-c2nnc3ccc(SCC(=O)Nc4nc5ccccc5s4)nn23)cc1 .
-11.8

Please report the recorded inhibition for CCOC(=O)/C(N=Nc1ccc(F)cc1)=C(/O)c1ccc([N+](=O)[O-])cc1 .
-5.66

Please report the recorded inhibition for CN(CC(=O)N1CCCc2c1c(=O)oc1ccc(O)cc21)Cc1ccccc1 .
-1.35

Please report the recorded inhibition for CC(C)(C)c1cc(OC(=O)c2ccncc2)ccc1O .
30.2

Please report the recorded inhibition for CCc1cc[n+](C2=C([O-])c3ccccc3C(=O)/C2=N\S(=O)(=O)c2cccs2)cc1 .
2.75

Please report the recorded inhibition for CC1=C(C(=O)OCC(C)C)C2(O)C(=O)c3ccccc3C2(O)N1 (configuration not stated) .
31.7

Please report the recorded inhibition for COc1ccc2c(c1)c(=O)cc(C)n2CC(=O)NCc1ccco1 .
-3.64

Please report the recorded inhibition for COC(=O)Cc1cnc(NC(=O)C2C3CCC(C3)C2C(=O)O)s1 (configuration not stated) .
-18.2

Please report the recorded inhibition for N#Cc1c(N)n(CCNC(=O)c2cccs2)c2nc3ccccc3nc12 .
-16.9

Please report the recorded inhibition for Cc1ccc(NC2=C(N3CCCCC3)C(=O)c3ccccc3C2=O)cc1 .
35.4

Please report the recorded inhibition for Cc1noc(NS(=O)(=O)c2ccc(NC(=O)CCCOc3ccc(Cl)cc3Cl)cc2)c1C .
-12.1

Please report the recorded inhibition for O=C1C(Nc2ccccc2)=C(N2CCCCC2)C(=O)c2ccccc21 .
41.9

Please report the recorded inhibition for COc1ccc2cc(-c3cc(C(=O)OCC(=O)NC4CCS(=O)(=O)C4)c4ccccc4n3)ccc2c1 (configuration not stated) .
3.98

Please report the recorded inhibition for O=C1c2ccccc2C(=O)C12OC2c1cccc2ccccc12 (configuration not stated) .
80.3

Please report the recorded inhibition for Cc1c(Br)cc(C(=O)OC2CCN(C)CC2)c(C)c1C .
0.211

Please report the recorded inhibition for O=C(NCc1ccccc1)C1CCCN1S(=O)(=O)c1cccc2cccnc12 (configuration not stated) .
-2.68

Please report the recorded inhibition for COc1ccc(NC2=C(NCCO)C(=O)c3ccccc3C2=O)cc1 .
20.2

Value source: PubChem BioAssay AID1261
